- tgt: F508delCFTR (Homo sapiens, UniProt P13569, DEL508-508)
- Construct: expressed in transfected cells; host or cells: CFBE41o- human lung-derived epithelial cells (CFBE41o-F508delCFTR-HRP), doxycycline-inducible
- Sequence (P13569 with tags, fused parts or gaps DEL508-508): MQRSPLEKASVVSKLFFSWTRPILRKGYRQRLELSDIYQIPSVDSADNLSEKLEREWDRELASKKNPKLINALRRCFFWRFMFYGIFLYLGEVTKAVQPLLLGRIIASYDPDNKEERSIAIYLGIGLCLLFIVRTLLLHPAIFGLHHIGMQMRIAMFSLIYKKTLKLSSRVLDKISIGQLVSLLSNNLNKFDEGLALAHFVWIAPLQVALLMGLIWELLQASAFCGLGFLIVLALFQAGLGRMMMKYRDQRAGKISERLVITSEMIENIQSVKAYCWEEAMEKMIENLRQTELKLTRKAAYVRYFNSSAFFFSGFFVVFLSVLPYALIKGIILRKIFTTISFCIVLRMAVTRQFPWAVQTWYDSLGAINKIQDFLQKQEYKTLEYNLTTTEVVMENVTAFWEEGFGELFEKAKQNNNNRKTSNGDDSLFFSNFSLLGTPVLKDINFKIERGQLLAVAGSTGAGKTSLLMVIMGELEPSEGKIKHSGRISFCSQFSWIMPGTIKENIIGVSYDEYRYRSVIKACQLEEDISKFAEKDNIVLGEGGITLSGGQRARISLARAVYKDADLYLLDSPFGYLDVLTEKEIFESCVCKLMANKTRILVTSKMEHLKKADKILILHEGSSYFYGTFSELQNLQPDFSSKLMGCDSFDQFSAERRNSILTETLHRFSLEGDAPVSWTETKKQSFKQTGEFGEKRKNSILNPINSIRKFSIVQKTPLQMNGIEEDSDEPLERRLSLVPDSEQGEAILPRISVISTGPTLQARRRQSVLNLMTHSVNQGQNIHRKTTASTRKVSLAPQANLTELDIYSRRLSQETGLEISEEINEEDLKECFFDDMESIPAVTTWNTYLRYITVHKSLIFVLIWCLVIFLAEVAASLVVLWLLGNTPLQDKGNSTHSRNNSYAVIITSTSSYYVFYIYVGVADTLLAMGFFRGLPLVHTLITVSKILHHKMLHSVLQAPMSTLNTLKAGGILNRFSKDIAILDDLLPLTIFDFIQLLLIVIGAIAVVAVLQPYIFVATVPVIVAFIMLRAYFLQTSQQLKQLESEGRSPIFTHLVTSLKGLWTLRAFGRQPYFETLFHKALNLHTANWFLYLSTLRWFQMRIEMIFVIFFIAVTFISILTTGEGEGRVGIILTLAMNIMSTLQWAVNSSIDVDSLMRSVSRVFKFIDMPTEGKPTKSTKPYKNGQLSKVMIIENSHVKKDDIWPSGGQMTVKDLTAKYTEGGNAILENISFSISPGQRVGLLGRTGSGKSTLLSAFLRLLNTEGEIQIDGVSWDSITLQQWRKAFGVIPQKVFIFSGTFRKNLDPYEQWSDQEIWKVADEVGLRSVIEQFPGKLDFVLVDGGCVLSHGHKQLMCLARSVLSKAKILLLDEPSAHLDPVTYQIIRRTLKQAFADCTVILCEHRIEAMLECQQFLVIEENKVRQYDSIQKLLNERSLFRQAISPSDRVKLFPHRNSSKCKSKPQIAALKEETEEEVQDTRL
- assayInfo: Cell Surface Expression-Horse Radish Peroxidase (CSE-HRP) assay, test compound with co-corrector;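 also: percent of 2 µM positive control corrector over DMSO; co-corrector is that same compound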
- Type: cell-based
- statedConditions: maximum at any tested concentration, normalized to positive control, with 2 μM co-corrector
reportedProperty: Maximum % activity (with co-corrector)

Known Maximum % activity (with co-corrector) results, listed for orientation:
# compound, Maximum % activity (with co-corrector)
records = [
    ("COc1cccc2c1CC(C(=O)NS(=O)(=O)c1ccccc1C)CC2 (centres unmarked)", "++ (≥150 and <350)"),
    ("Cc1ccccc1S(=O)(=O)NC(=O)[C@@H]1CCCc2ccccc21", "++ (≥150 and <350)"),
    ("COc1ccc(CCC2OCCCO2)c2c1C(C(=O)NS(=O)(=O)c1cccc3ccccc13)CCC2 (centres unmarked)", "+++ (≥350)"),
    ("COC(=O)c1ccc(OC)c2c1CCC2C(=O)NS(=O)(=O)c1cccc2ccccc12 (centres unmarked)", "+++ (≥350)"),
]

Req: Fill in the blank: the reported Maximum % activity (with co-corrector) of O=C(NS(=O)(=O)c1cccc2ccccc12)C1CCCc2c(OCC3CCCCC3)ccc(Br)c21 (centres unmarked) is ____.
Resp: ++ (≥150 and <350)

Req: Then COc1ccc(/C=C/c2ccccc2)c2c1C(C(=O)NS(=O)(=O)c1cccc3ccccc13)CCC2 (centres unmarked) ?
Resp: ++ (≥150 and <350)

Req: What about this compound? COc1ncc(Cl)c2c1C(C(=O)NS(=O)(=O)c1cccc3ccccc13)CC2 (centres unmarked)
Resp: +++ (≥350)

Req: Same read-out for COc1cccc2c1CCC2C(=O)NS(=O)(=O)c1ccccc1F (centres unmarked) ?
Resp: ++ (≥150 and <350)

Req: Okay, and `COc1ccc(C(F)(F)F)c2c1[C@H](C(=O)NS(=O)(=O)c1cccc3ccccc13)CC2` ?
Resp: +++ (≥350)

Req: What do you have for COc1ccc(C2CCC2)c2c1C(C(=O)NS(=O)(=O)c1cccc3ccccc13)CC2 (centres unmarked) ?
Resp: +++ (≥350)

Req: # repeat for COc1ccc(C2CCC2)c2c1C(C(=O)NS(=O)(=O)c1cccn3nccc13)C2 (centres unmarked)
Resp: +++ (≥350)
